Sourced from the NIST ThermoML archive (doi:10.1016/j.jct.2016.08.005)

conditions: 338.15 K; 10000 kPa; Liquid; Vibrating tube method
Form field: mass density (one value per entry).
Number in kg/m3, nothing else.

Below, 3 molecules whose answers are already recorded.
Structure Notation	Measured Property	Reported Result
c1ccsc1	mass density	1020.86
Cc1ccc(C)s1	mass density	949.02
Cc1cccs1	mass density	981.08

Report mass density for Cc1ccsc1 please.
982.95

* * *

conditions: 313.15 K; 45000 kPa; Liquid; Vibrating tube method
Form field: mass density (one value per entry).
Number in kg/m3, nothing else.

Below, 3 molecules whose answers are already recorded.
Structure Notation	mass density, kg/m3
c1ccsc1	1077.41
Cc1ccsc1	1034.35
Cc1cccs1	1033.52

Field: next molecule
Report mass density for Cc1ccc(C)s1 please.
999.23
